Tested on: HepG2 Srxn1-GFP reporter cells (+30 nM CDDO-Me)
Experiment: Srxn1-GFP intensity median modified Z-score relative to plate median; higher = stronger NRF2 / oxidative stress reporter activation, active = hit call of the paper
Details: 10 µM; exposure time: 24h
Among all 2,300 compounds or so, about 330 (14%) showed activity.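 The calls were made as follows: active = median modified Z-score above 1.96; inactive = 1.96 or below.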 These entries were drawn from the full list.
Your answer must be one of the following: active, inactive

## Task Test call for this compound, please: "O=C1[O][Bi]([OH])[O]c2ccccc21"
## Result inactive

## Task Test call for this compound, please: "S=c1[nH]cnc2[nH]cnc12"
## Result active

## Task Test call for this compound, please: C=C[C@@]1(C)CC(=O)[C@@]2(O)[C@](C)(O1)[C@@H](OC(C)=O)[C@@H](O)C1C(C)(C)CC[C@H](O)[C@@]12C (some centres undefined)
## Result inactive

## Task Test call for this compound, please: "O=C(O[C@@H]1Cc2c(O)cc(O)cc2O[C@@H]1c1cc(O)c(O)c(O)c1)c1cc(O)c(O)c(O)c1"
## Result inactive

## Task Test call for this compound, please: "Oc1ccc(O)cc1"
## Result inactive

## Task Test call for this compound, please: C[C@H](CCC(=O)O)[C@H]1CCC2C3C(CC[C@@]21C)[C@@]1(C)CC[C@@H](O)C[C@H]1C[C@@H]3O (some centres undefined)
## Result inactive

## Task Test call for this compound, please: "CC(C)c1ccc2oc3[nH]c(=N)c(C(=O)O)cc3c(=O)c2c1"
## Result inactive

## Task Test call for this compound, please: "CC/C=C\C/C=C\C/C=C\C/C=C\C/C=C\CCCC(=O)OCC"
## Result inactive

## Task Test call for this compound, please: "NC(=O)N1c2ccccc2CC(=O)c2ccccc21"
## Result inactive

## Task Test call for this compound, please: CN1C2CC[C@H]1C[C@@H](OC(=O)C(O)c1ccccc1)C2 (some centres undefined)
## Result inactive

## Task Test call for this compound, please: "c1coc(CN=c2[nH]cnc3[nH]cnc23)c1"
## Result inactive

## Task Test call for this compound, please: N#CC(c1ccc(Cl)cc1)c1c(Cl)cc(-n2ncc(=O)[nH]c2=O)cc1Cl (centres undefined)
## Result active

## Task Test call for this compound, please: "Cc1ccc(C)c(N2C(=O)c3ccc(C(=O)OCC(=O)N4CCc5ccccc54)cc3C2=O)c1"
## Result inactive

## Task Test call for this compound, please: "Cc1ccc(O)cc1"
## Result inactive

## Task Test call for this compound, please: Oc1cc2c(cc1O)=C1c3ccc(O)c(O)c3OCC1(O)C=2 (centres undefined)
## Result inactive

## Task Test call for this compound, please: "O=c1c(-c2cc(O)c(O)c(O)c2)coc2cc(O)c(O)c(O)c12"
## Result inactive

## Task Test call for this compound, please: O=C(O)C(O)C(O)C(O)C(O)C(=O)O (centres undefined)
## Result inactive

## Task Test call for this compound, please: "O=C(N[C@@H](CO)[C@H](O)c1ccc([N+](=O)[O-])cc1)C(Cl)Cl"
## Result inactive

## Task Test call for this compound, please: "O=C1CC(=O)c2ccccc2C1=O"
## Result active

====

Test system: HepG2 Srxn1-GFP reporter cells (+30 nM CDDO-Me)
Experiment: Srxn1-GFP intensity median modified Z-score relative to plate median; higher = stronger NRF2 / oxidative stress reporter activation, active = hit call of the paper
Conditions: 10 µM; exposure time: 24h
The whole screen tested about 2,300 compounds, of which about 330 (14%) showed activity. A selection follows.
So I've got a bunch of molecules here, and I need their Srxn1-GFP intensity median modified Z-score values.
Please give the numeric answer without any surrounding text.

## Task Consider the molecule shown here: CCN(CC)CCOC(=O)C(c1ccccc1)C1CCCCC1 (stereo not drawn) [euspeclibcmpd1055] What is its recorded Srxn1-GFP intensity median modified Z-score?
## Result 0.0961

## Task Consider the molecule shown here: OCc1cc(O)c2c(O)c3c(O)cccc3c([C@@H]3O[C@H](CO)[C@@H](O)[C@H](O)[C@H]3O)c2c1 [euspeclibcmpd1140] What is its recorded Srxn1-GFP intensity median modified Z-score?
## Result -0.523

## Task Consider the molecule shown here: NC(C(=O)NC1C(=O)N2C(C(=O)O)=C(Cl)CSC12)c1ccccc1 (stereo not drawn) [euspeclibcmpd343] What is its recorded Srxn1-GFP intensity median modified Z-score?
## Result -0.608

## Task Consider the molecule shown here: COc1cc(-c2coc3cc(OCc4ccccc4)c(OC)c(O)c3c2=O)cc(OCc2ccccc2)c1OC [euspeclibcmpd1942] What is its recorded Srxn1-GFP intensity median modified Z-score?
## Result -0.32

## Task Consider the molecule shown here: CNS(=O)(=O)Cc1ccc2[nH]cc(CCN(C)C)c2c1 [euspeclibcmpd759] What is its recorded Srxn1-GFP intensity median modified Z-score?
## Result -0.145

## Task Consider the molecule shown here: CCN(CC)CCOC(=O)C1(C2CCCCC2)CCCCC1 [euspeclibcmpd90] What is its recorded Srxn1-GFP intensity median modified Z-score?
## Result 2.86

## Task Consider the molecule shown here: CCCCCC1C(=O)CCC1CC(=O)OC (stereo not drawn) [euspeclibcmpd1637] What is its recorded Srxn1-GFP intensity median modified Z-score?
## Result -0.322

## Task Consider the molecule shown here: CCCCCCCCCCCCCCCCOP(=O)(O)OCC[N+](C)(C)C [euspeclibcmpd1120] What is its recorded Srxn1-GFP intensity median modified Z-score?
## Result 1.47

====

So I've got a bunch of compounds here, and I need their Srxn1-GFP intensity median modified Z-score values.
Test system: HepG2 Srxn1-GFP reporter cells (+30 nM CDDO-Me)
Test: Srxn1-GFP intensity median modified Z-score relative to plate median; higher = stronger NRF2 / oxidative stress reporter activation, active = hit call of the paper
Details: 10 µM; exposure time: 24h
Out of some 2,300 compounds screened, about 330 (14%) showed activity. Not all results are given here.
Please give the numeric answer without any surrounding text.

## Task Consider the compound shown here: Cc1ccc(C(=O)c2ccc(CC(=O)O)n2C)cc1 [euspeclibcmpd2405] What is its recorded Srxn1-GFP intensity median modified Z-score?
## Result 0.508

## Task Consider the compound shown here: O=C(NCC(O)=NO)c1ccc(Cl)cc1 [euspeclibcmpd774] What is its recorded Srxn1-GFP intensity median modified Z-score?
## Result 0.804

## Task Consider the compound shown here: COC(=O)CCC(C)[C@H]1CCC2C3C(C[C@H](O)[C@@]21C)[C@@]1(C)CC[C@@H](O)C[C@H]1C[C@H]3O (some centres undefined) [euspeclibcmpd1539] What is its recorded Srxn1-GFP intensity median modified Z-score?
## Result -0.423

## Task Consider the compound shown here: C=C[C@@](C)(O)CCC1C(=C)C[C@H](O)C2C(C)(C)CCCC12C (some centres undefined) [euspeclibcmpd2065] What is its recorded Srxn1-GFP intensity median modified Z-score?
## Result 0.497

====

So I've got a bunch of compounds here, and I need their Srxn1-GFP intensity median modified Z-score values.
Test system: HepG2 Srxn1-GFP reporter cells (+30 nM CDDO-Me)
Assay: Srxn1-GFP intensity median modified Z-score relative to plate median; higher = stronger NRF2 / oxidative stress reporter activation, active = hit call of the paper
Settings: 10 µM; exposure time: 24h
Screen size: about 2,300 compounds; about 330 (14%) showed activity. These entries were drawn from the full list.
Please give the numeric answer without any surrounding text.

## Task Consider the compound shown here: "O=c1ccn([C@@H]2O[C@H](CO)[C@@H](O)[C@H]2O)c(=O)[nH]1" What is its recorded Srxn1-GFP intensity median modified Z-score?
## Result -0.304

## Task Consider the compound shown here: N=c1ccn(C2O[C@H](CO)[C@@H](O)[C@H]2O)c(=O)[nH]1 (some centres undefined) What is its recorded Srxn1-GFP intensity median modified Z-score?
## Result -0.285

## Task Consider the compound shown here: "COc1cc(C=CC(=O)O)cc(OC)c1O" What is its recorded Srxn1-GFP intensity median modified Z-score?
## Result -0.0893

## Task Consider the compound shown here: "COc1ccc(-c2cc(=O)c3cc(OC)ccc3o2)cc1" What is its recorded Srxn1-GFP intensity median modified Z-score?
## Result -0.0301

## Task Consider the compound shown here: CCCCC(=O)O[C@H]1CCC2C3CCc4cc(O)ccc4C3CC[C@@]21C (some centres undefined) What is its recorded Srxn1-GFP intensity median modified Z-score?
## Result -0.716

## Task Consider the compound shown here: COC(=O)C1=C(C)N=C(C)C(C(=O)OCCN2CCN(C(c3ccccc3)c3ccccc3)CC2)C1c1cccc([N+](=O)[O-])c1 (centres undefined) What is its recorded Srxn1-GFP intensity median modified Z-score?
## Result 5.13

## Task Consider the compound shown here: "N#CCOC(=O)c1cc(-c2ccccc2)nc2ccccc12" What is its recorded Srxn1-GFP intensity median modified Z-score?
## Result 1.25

## Task Consider the compound shown here: "CCC(=O)c1c(O)cc(O)cc1O" What is its recorded Srxn1-GFP intensity median modified Z-score?
## Result 0.366

## Task Consider the compound shown here: "CCOc1ccc(C(=O)c2ccc(OC)c(O)c2O)cc1" What is its recorded Srxn1-GFP intensity median modified Z-score?
## Result -0.333

## Task Consider the compound shown here: "O=C(OCC(=O)N1CCCC1)c1sc2cc(Cl)cc(Cl)c2c1Cl" What is its recorded Srxn1-GFP intensity median modified Z-score?
## Result 0.374

## Task Consider the compound shown here: "Cc1ccc2c(c1)CC[C@H]1CC(=O)CC[C@]21C" What is its recorded Srxn1-GFP intensity median modified Z-score?
## Result 0.163

## Task Consider the compound shown here: O=C(O)C1O[C@@H](Oc2cc3oc(-c4ccccc4)cc(=O)c3c(O)c2O)[C@H](O)[C@@H](O)[C@@H]1O (some centres undefined) What is its recorded Srxn1-GFP intensity median modified Z-score?
## Result -0.648

## Task Consider the compound shown here: "COc1ccc2oc(-c3ccccc3OC)cc(=O)c2c1" What is its recorded Srxn1-GFP intensity median modified Z-score?
## Result 3.62

## Task Consider the compound shown here: CCOC(=O)C(CCc1ccccc1)NC1CCc2ccccc2N(CC(=O)O)C1=O (centres undefined) What is its recorded Srxn1-GFP intensity median modified Z-score?
## Result 3.02

## Task Consider the compound shown here: "COc1cc(OC)c2c(=O)c(O)c(-c3ccc(OC)c(OC)c3)oc2c1" What is its recorded Srxn1-GFP intensity median modified Z-score?
## Result -0.572

## Task Consider the compound shown here: CC(C)C(N)C(=O)OCCOCn1cnc2c(=O)[nH]c(=N)[nH]c21 (centres undefined) What is its recorded Srxn1-GFP intensity median modified Z-score?
## Result 0.568

## Task Consider the compound shown here: N=c1ccn(C2CSC(CO)O2)c(=O)[nH]1 (centres undefined) What is its recorded Srxn1-GFP intensity median modified Z-score?
## Result -0.762

## Task Consider the compound shown here: "OCCN=CCNc1ccc(NCCNCCO)c2c(O)c3c(O)ccc(O)c3c(O)c12" What is its recorded Srxn1-GFP intensity median modified Z-score?
## Result -1.55

## Task Consider the compound shown here: "COc1cc(OC)c2c(=O)cc(-c3ccccc3)oc2c1" What is its recorded Srxn1-GFP intensity median modified Z-score?
## Result 0.503

## Task Consider the compound shown here: "COC(C)(C)CCC[C@H](C)C=CC=C(C)CC(=O)OC(C)C" What is its recorded Srxn1-GFP intensity median modified Z-score?
## Result 0.521

## Task Consider the compound shown here: "CC(=O)COc1ccc2c(C)cc(=O)oc2c1" What is its recorded Srxn1-GFP intensity median modified Z-score?
## Result 1.43

## Task Consider the compound shown here: "CC1=C(/C=C/C(C)=C/C=C/C(C)=C/CO)C(C)(C)CCC1" What is its recorded Srxn1-GFP intensity median modified Z-score?
## Result -0.0835

## Task Consider the compound shown here: "O=C(CCc1ccc(O)cc1)c1c(O)cc(O)cc1O[C@@H]1O[C@H](CO)[C@@H](O)[C@H](O)[C@H]1O" What is its recorded Srxn1-GFP intensity median modified Z-score?
## Result -0.343

## Task Consider the compound shown here: "COc1ccc2c(=O)cc(-c3ccccc3OC)oc2c1" What is its recorded Srxn1-GFP intensity median modified Z-score?
## Result 0.253

## Task Consider the compound shown here: CCOC(=O)C(CCc1ccccc1)NC(C)C(=O)N1Cc2ccccc2CC1C(=O)O (centres undefined) What is its recorded Srxn1-GFP intensity median modified Z-score?
## Result 0.162

## Task Consider the compound shown here: COC(=O)C1=C(C)N=C(C)C(C(=O)OCCN(C)Cc2ccccc2)C1c1cccc([N+](=O)[O-])c1 (centres undefined) What is its recorded Srxn1-GFP intensity median modified Z-score?
## Result -0.375

## Task Consider the compound shown here: COC(=O)C1=C(C)N=C(C)C(C(=O)OCC(C)C)C1c1ccccc1[N+](=O)[O-] (centres undefined) What is its recorded Srxn1-GFP intensity median modified Z-score?
## Result 10.8

## Task Consider the compound shown here: "COc1ccccc1-c1cc(=O)c2c(OC)cccc2o1" What is its recorded Srxn1-GFP intensity median modified Z-score?
## Result 2.2

## Task Consider the compound shown here: "C=C[C@H]1C[N@]2CC[C@H]1C[C@@H]2[C@@H](O)c1ccnc2ccc(OC)cc12" What is its recorded Srxn1-GFP intensity median modified Z-score?
## Result 1.98

## Task Consider the compound shown here: NCCCC(N)C(=O)O (centres undefined) What is its recorded Srxn1-GFP intensity median modified Z-score?
## Result -0.13

## Task Consider the compound shown here: NC(=O)c1ncn(C2O[C@H](CO)[C@@H](O)[C@H]2O)c1N (some centres undefined) What is its recorded Srxn1-GFP intensity median modified Z-score?
## Result 0.445

## Task Consider the compound shown here: "CC1=C(/C=C/C(C)=C/C=C/C(C)=C/C=C/C=C(C)/C=C/C=C(C)/C=C/C2=C(C)CCCC2(C)C)C(C)(C)CCC1" What is its recorded Srxn1-GFP intensity median modified Z-score?
## Result 1.65

## Task Consider the compound shown here: N=c1[nH]c(=S)c2ncn(C3O[C@H](CO)[C@@H](O)[C@H]3O)c2[nH]1 (some centres undefined) What is its recorded Srxn1-GFP intensity median modified Z-score?
## Result 41.1

## Task Consider the compound shown here: CC(C)C1=CC2=CCC3[C@](C)(CCC[C@]3(C)C(=O)O)C2CC1 (some centres undefined) What is its recorded Srxn1-GFP intensity median modified Z-score?
## Result -0.234

Data provenance is the supplement of paper PMC10498489.
